Parameter binding to iC3b: see the listing below.
- target_or_test_system: iC3b (Homo sapiens, UniProt P01024)
- Sequence (P01024 23-667 limits assumed): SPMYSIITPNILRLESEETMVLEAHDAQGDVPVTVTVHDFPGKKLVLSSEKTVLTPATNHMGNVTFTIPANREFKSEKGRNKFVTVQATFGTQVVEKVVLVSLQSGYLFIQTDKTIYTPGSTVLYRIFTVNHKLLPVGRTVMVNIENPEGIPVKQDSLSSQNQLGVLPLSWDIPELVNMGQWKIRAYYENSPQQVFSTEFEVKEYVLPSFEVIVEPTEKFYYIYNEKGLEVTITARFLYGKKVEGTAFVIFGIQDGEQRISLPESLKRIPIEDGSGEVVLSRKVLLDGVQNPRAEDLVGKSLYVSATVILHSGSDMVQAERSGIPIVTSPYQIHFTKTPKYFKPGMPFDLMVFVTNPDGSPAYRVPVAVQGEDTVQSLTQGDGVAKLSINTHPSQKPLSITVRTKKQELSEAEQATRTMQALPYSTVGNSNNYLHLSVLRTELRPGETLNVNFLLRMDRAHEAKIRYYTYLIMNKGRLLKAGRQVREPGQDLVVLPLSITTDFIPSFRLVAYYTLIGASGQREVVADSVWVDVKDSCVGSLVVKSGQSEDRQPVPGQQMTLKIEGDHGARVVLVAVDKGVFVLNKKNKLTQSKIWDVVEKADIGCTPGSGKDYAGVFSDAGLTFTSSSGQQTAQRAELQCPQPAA
- Sequence (P01024 749-1303 limits assumed): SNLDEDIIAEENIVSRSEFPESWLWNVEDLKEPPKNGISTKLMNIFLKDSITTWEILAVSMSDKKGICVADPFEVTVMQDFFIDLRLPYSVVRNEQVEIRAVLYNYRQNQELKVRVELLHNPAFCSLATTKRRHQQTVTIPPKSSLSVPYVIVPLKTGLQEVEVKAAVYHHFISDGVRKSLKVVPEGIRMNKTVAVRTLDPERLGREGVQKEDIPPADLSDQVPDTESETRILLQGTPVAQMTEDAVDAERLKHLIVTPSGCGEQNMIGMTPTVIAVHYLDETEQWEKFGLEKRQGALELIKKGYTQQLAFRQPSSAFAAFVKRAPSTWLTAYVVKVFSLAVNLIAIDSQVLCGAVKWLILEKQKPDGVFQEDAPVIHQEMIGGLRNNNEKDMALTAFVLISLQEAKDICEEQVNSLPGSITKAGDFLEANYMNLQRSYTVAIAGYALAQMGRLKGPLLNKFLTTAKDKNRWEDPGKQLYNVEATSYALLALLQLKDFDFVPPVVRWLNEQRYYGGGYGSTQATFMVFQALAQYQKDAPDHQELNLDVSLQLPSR
- Sequence (P01024 1321-1663 limits assumed): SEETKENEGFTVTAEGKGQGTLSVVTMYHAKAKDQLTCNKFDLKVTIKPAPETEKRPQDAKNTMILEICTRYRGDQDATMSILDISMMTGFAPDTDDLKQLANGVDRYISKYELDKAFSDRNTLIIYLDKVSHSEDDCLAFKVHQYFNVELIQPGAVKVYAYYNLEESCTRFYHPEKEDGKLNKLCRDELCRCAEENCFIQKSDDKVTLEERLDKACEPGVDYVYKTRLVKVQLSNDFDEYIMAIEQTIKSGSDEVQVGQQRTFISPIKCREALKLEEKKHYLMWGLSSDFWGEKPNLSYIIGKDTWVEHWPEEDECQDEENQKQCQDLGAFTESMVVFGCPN
- protocol_text: Binding profile: binding to iC3b
- conditions: relative to the binding of the negative control mIgG2 antibody
Give the value as a plain number.

Example entries begin here.
3D8: mouse anti-C3 monoclonal antibody; VH SEQ ID NO:91, VL SEQ ID NO:92 (antibody, V domains shown) VH: EIQLQQSGAELVKPGASVKISCKASGYSFTGYNMNWVKQSHGKSLEWIGNINPYYGSTNYNQKFKGKATLTVDKSSTTAYMQLDSLTSEDSAVYYCARGYYGGNYPFAYWGQGTLVTVSA VL: DIQMTQSPASLSASVGETVTITCRASENIYSYLAWYQQKQGKSPQLLVYNAKTLAEGVPSRFSGSGSGTQFSLKINSLQPEDFGSYYCQHYYGTPYTFGGGSKVEIK: 0.29
63A3: mouse anti-C3 monoclonal antibody; VH SEQ ID NO:107, VL SEQ ID NO:108 (antibody, V domains shown) VH: DVQLQESGPGLVKPSQSLSLTCSVTGYSITSGYYWNWIRQFPGNKLEWMGYIRYDGSNNYNPSLKNRISITRDTSKNQVFLKLNSVTPEDTATYYCARHYGYDGGAFDFWGQGTTLTVSS VL: DIQMTQSPASLSASVGETVTITCRTSENIYNYLVWYQQKQGKSPQLLVYNAKTLEEGVPSRFSGSGSGTQFSLKVNSLQPEDFGSYYCQHHYGTPFTFGSGTKLEIK: 0.72

Next molecule, please.
What the record says about 38F5: mouse anti-C3 monoclonal antibody; VH SEQ ID NO:101, VL SEQ ID NO:102 (antibody, V domains shown) VH: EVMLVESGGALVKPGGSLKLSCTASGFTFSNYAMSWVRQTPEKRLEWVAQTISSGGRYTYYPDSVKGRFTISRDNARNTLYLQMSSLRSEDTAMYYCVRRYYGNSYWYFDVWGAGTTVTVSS VL: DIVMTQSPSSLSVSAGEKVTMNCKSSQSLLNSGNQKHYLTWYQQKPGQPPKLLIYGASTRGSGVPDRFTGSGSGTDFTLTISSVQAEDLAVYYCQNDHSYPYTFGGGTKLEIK : binding to iC3b is 0.45
